- Experimental Details: TOX21_p53_BLA_p3_viability: Viability Assessment in the Tox21 HCT-116 p53 Agonism Beta-lactamase Assay, Phase 3 (AID 2283593);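 also: cells exposed to compound for 16 h before reading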
Results filed as inconclusive are left out. Calls of active or inactive are those of the source. The calls were made as follows: active = hit-call score of the fitted dose curve at least 0.9, where 1 is the maximum; inconclusive = response in the unintended direction; inactive = score below 0.9.
Your response should consist of one outcome taken from active, inactive

Example entries begin here.
Compound	Category
Cc1cccc(C)c1NC(=O)CC12CCCN1CCC2	inactive
CCCCCCCCCCCCCCCCCCOP(=O)([O-])OC1CC[N+](C)(C)CC1	inactive
CCCCCCCCCCCC[n+]1ccc2ccccc2c1	active
O=Cc1c(Cl)cccc1Cl	inactive

Incoming: Please indicate how the test categorized "NCCCNCCSP(=O)(O)O" .
Outgoing: inactive

Incoming: Please indicate how the test categorized "Nc1nc(Cl)nc2c1ncn2[C@@H]1O[C@H](CO)[C@@H](O)[C@@H]1F" .
Outgoing: inactive

Incoming: Please indicate how the test categorized CC[N+]1(CC)CCC(=C(c2ccccc2)c2ccccc2)C1C (stereo not drawn) .
Outgoing: inactive

Incoming: Please indicate how the test categorized CCCCCCCCC1CO1 (stereo not drawn) .
Outgoing: inactive

Incoming: Please indicate how the test categorized "O=C(CCCN1CCN(c2ccccn2)CC1)c1ccc(F)cc1" .
Outgoing: inactive

Incoming: Please indicate how the test categorized "O=C(O)c1cc(-c2ccc(F)cc2F)ccc1O" .
Outgoing: inactive

* * *

- Experimental Details: TOX21_p53_BLA_p4_viability: Viability Assessment in the Tox21 HCT-116 p53 Agonism Beta-lactamase Assay, Phase 4 (AID 2283597);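 also: hits lower the luminescence signal meaning cytotoxicity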
Inconclusive results are not listed. Activity calls are given as the source filed them. Rule for the calls: active = hit-call score of the fitted dose curve at least 0.9, where 1 is the maximum; inconclusive = response in the unintended direction; inactive = score below 0.9.
Readout Kind: AC50

Known AC50 results, listed for orientation:
Compound	AC50
CN1CCN(CCC=C2c3ccccc3Sc3ccc(S(=O)(=O)N(C)C)cc32)CC1	34.9 µM (active)
Cc1cccc(N(C)C(=S)Oc2ccc3c(c2)CCC3)c1	inactive
CCOc1ccccc1O[C@H](c1ccccc1)[C@H]1CNCCO1	inactive
NCCCCCC(=O)O	inactive

Incoming: Can you share its AC50? I mean this compound: "O=C1O[C@H](CO)[C@@H](O)[C@H](O)[C@H]1O"
Outgoing: inactive

Incoming: Can you share its AC50? I mean this compound: C1=CC2C3C=CC(C3)C2C1 (stereo not drawn) (tested in a mixture with another compound)
Outgoing: inactive

Incoming: Can you share its AC50? I mean this compound: CC(C)NCC(O)c1ccc(NS(C)(=O)=O)cc1 (stereo not drawn)
Outgoing: inactive

Incoming: Can you share its AC50? I mean this compound: "CCCCCCCCCCCCCC[N+](C)(C)Cc1ccccc1"
Outgoing: 27.9 µM (active)

Incoming: Can you share its AC50? I mean this compound: "CCCCCCCCS"
Outgoing: inactive

Incoming: Can you share its AC50? I mean this compound: "CC(C)CCCCCCN"
Outgoing: inactive

Incoming: Can you share its AC50? I mean this compound: "O=c1[nH][nH]c(=O)c2cc([N+](=O)[O-])ccc12"
Outgoing: inactive

Incoming: Can you share its AC50? I mean this compound: "Cc1cc(Cl)c(C)cc1Cl"
Outgoing: inactive

Incoming: Can you share its AC50? I mean this compound: "ClC1=C(Cl)C1(Cl)Cl"
Outgoing: inactive

* * *

- Test System: Cellular tumor antigen p53 (Homo sapiens) (UniProt P04637)
- Sequence (P04637 whole entry, looked up): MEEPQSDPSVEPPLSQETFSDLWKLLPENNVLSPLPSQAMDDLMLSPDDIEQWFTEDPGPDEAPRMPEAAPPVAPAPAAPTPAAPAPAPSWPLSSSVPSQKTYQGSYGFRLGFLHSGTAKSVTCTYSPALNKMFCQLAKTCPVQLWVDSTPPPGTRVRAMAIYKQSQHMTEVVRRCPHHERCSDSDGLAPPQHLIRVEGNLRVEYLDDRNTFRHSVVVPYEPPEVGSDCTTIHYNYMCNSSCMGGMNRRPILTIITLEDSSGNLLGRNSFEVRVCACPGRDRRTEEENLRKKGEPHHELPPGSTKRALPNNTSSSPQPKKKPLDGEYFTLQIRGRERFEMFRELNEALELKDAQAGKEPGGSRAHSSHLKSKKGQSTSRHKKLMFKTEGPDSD
- Experimental Details: TOX21_p53_BLA_p3_ratio: Tox21 HCT-116 p53 Agonism Beta-lactamase Assay, Ratio, Phase 3 (AID 2283596)
Inconclusive results are not listed. The source made the active and inactive calls. How the source made its calls: active means hit-call score of the fitted dose curve at least 0.9, where 1 is the maximum; inconclusive means response in the unintended direction; inactive means score below 0.9.
Your response should consist of one outcome taken from active, inactive

Incoming: Please indicate how the test categorized "Cc1cccc(Nc2ncccc2C(=O)O)c1C" .
Outgoing: inactive

Incoming: Please indicate how the test categorized CCC(C(=O)OCCN(CC)CC)c1ccccc1 (stereo not given) .
Outgoing: inactive

Incoming: Please indicate how the test categorized "Clc1cc(Cl)cc(Cl)c1" .
Outgoing: inactive

Incoming: Please indicate how the test categorized "C(=C\c1ccccc1)/CN1CCN(C(c2ccccc2)c2ccccc2)CC1" .
Outgoing: inactive
